# TEST_SYSTEM: NRAS G12C (Homo sapiens (Human), UniProt P01111+P62937, G12C)
# Sequence (P01111 whole entry G12C): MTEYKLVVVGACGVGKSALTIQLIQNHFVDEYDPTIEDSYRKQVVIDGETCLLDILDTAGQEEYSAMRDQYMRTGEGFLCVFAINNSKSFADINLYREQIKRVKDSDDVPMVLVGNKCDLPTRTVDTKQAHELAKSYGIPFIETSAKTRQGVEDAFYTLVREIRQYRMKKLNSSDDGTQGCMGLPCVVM
# Sequence (P62937 whole entry): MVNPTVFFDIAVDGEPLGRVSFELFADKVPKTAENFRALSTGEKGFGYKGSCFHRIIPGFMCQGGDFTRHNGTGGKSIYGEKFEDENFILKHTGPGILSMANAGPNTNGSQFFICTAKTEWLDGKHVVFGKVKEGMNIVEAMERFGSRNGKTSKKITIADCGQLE
# EXPERIMENTAL_DETAILS: Ras-Raf (BRAF RBD) disruption / FRET / MOA assay, NRAS G12C
# Assay type: biochemical
# COND: read-out: IC50* NRAS G12C FRET data
Reported values of IC50 for individual entries

Previously resolved entries follow.
COMPOUND: CCn1c(-c2cccnc2COC)c2c3cc(ccc31)-c1cc(O)cc(c1)C[C@H](NC(=O)[C@H](C(C)C)N(C)C(=O)[C@@H]1CCN(C(=O)C#CC(C)(C)N(C)C)C1)C(=O)N1CCC[C@H](N1)C(=O)OCC(C)(C)C2 [Example A162]
ENDPOINT_NAME: IC50
RESULT: < 0.01 µM

COMPOUND: CO[C@@H](C)c1ncccc1-c1c2c3cc(ccc3n1CC(F)(F)F)-c1cc(cc(C(F)F)c1)C[C@H](NC(=O)[C@@H](COC1CN(C(=O)C#CC(C)(C)N(C)C)C1)C(C)C)C(=O)N1CCC[C@H](N1)C(=O)OCC(C)(C)C2 (atropisomer, axis not shown) [Example A374]
ENDPOINT_NAME: IC50
RESULT: 0.1 to 1 µM

COMPOUND: CC#CC(=O)N1CC[C@@H](C(=O)N(C)[C@H](C(=O)N[C@H]2Cc3cccc(c3)-c3ccc4c(c3)c(c(-c3cccnc3[C@H](C)OC)n4CC)CC(C)(C)COC(=O)[C@@H]3CCCN(N3)C2=O)C(C)C)C1 (atropisomer, axis not shown) [Example A487]
ENDPOINT_NAME: IC50
RESULT: 0.1 to 1 µM

COMPOUND: C=CC(=O)N1CCCN(C(=O)N(C)[C@H](C(=O)N[C@H]2Cc3cc(O)cc(c3)-c3ccc4c(c3)c(c(-c3cccnc3[C@H](C)OC)n4CC)CC(C)(C)COC(=O)[C@@H]3CCCN(N3)C2=O)C(C)C)CC1 (atropisomer, axis not shown) [Example A265]
ENDPOINT_NAME: IC50
RESULT: 0.01 to 0.1 µM

COMPOUND: C=CC(=O)N1CCC(C(=O)N(C)[C@H](C(=O)N[C@H]2Cc3cc(O)cc(c3)-c3ccc4c(c3)c(c(-c3cccnc3[C@H](C)OC)n4CC)CC(C)(C)COC(=O)[C@@H]3CCCN(N3)C2=O)C(C)C)CC1 (atropisomer, axis not shown) [Example A260]
ENDPOINT_NAME: IC50
RESULT: 0.01 to 0.1 µM

COMPOUND: C=CC(=O)N1CCO[C@H]2CN(C(=O)N(C)[C@H](C(=O)N[C@H]3Cc4cccc(n4)-c4ccc5c(c4)c(c(-c4cccnc4[C@H](C)OC)n5CC)CC(C)(C)COC(=O)[C@@H]4CCCN(N4)C3=O)C(C)C)C[C@H]21 (atropisomer, axis not shown) [Example A597]
ENDPOINT_NAME: IC50
RESULT: 0.01 to 0.1 µM

Lab note: C=CC(=O)N(C)[C@H]1C[C@@H](N(C)C(=O)N(C)[C@H](C(=O)N[C@H]2Cc3nc(cs3)-c3ccc4c(c3)c(c(-c3cccnc3[C@H](C)OC)n4CC)CC(C)(C)COC(=O)[C@@H]3CCCN(N3)C2=O)C(C)C)C1 (atropisomer, axis not shown) [Example A704] gave IC50 of 0.01 to 0.1 µM

Lab note: C=CC(=O)N1CC[C@H](C(=O)N(C)[C@H](C(=O)N[C@H]2Cc3cc(O)cc(c3)-c3ccc4c(c3)c(c(-c3cc(CN(C)C)nn3C)n4CC)CC(C)(C)COC(=O)[C@@H]3CCCN(N3)C2=O)C(C)C)C1 [Example A109] gave IC50 of 0.1 to 1 µM

src = patent US11566007B2
